Origin of the recorded values: patent US9839632B2

test: Blood and brain microdialysis (unbound concentrations) in male CD-IGS rats after single p.o. administration; format: in vivo, rat; settings: rat, po; microdialysis, male CD-IGS rats, single p.o. 50 mg/kg, n = 3; read-out: AUC ratio Brain:Blood (unbound)
parameter: Kp
// return a plain number; no unit text

According to the records, this molecule Nc1cccc2c1C(=O)N(C1CCC(=O)NC1=O)C2=O (stereo not shown) [Pomalidomide] displays Kp of 0.39

---

assay: Blood and brain microdialysis (unbound concentrations) in male CD-IGS rats after single p.o. administration; type: in vivo, rat; conditions: rat, blood (jugular vein) microdialysate, po; microdialysis, male CD-IGS rats, single p.o. 50 mg/kg, n = 3; read-out: Tmax, unbound, Blood
parameter: Tmax (h)
Respond numerically; units are h and should not be typed.

The reported Tmax of the compound Nc1cccc2c1C(=O)N(C1CCC(=O)NC1=O)C2=O (stereo not shown) [Pomalidomide] was 4.6
